Source: the supplement of paper PMC11061612

What combination Emax was measured for each of the following?
# System: MG-63 (Osteosarcoma)
# Assay protocol: combination Emax (second highest fraction inhibited in the dose matrix, 72 h); higher = more inhibition; extreme values may be limits of the assay

{"Molecule": "CN(CCO)CC[C@H](CSc1ccccc1)Nc1ccc(S(=O)(=O)NC(=O)c2ccc(N3CCC([C@@H](O)c4ccccc4-c4ccc(Cl)cc4)CC3)cc2)cc1S(=O)(=O)C(F)(F)F [AZD4320] + C[C@@H](Nc1cc(F)cc(F)c1)c1cc(C(=O)N(C)C)cc2c(=O)cc(N3CCOCC3)oc12 [AZD8186] (first compound max 1 µM, 7x7, partner max 3 µM)", "combination Emax": 0.375}

# map each molecule to its combination Emax
1. COc1cc2ncnc(Nc3ccc(F)c(Cl)c3)c2cc1OCCCN1CCOCC1 [Gefitinib] + CC(C)n1c(=O)n(C)c2cnc3cc(F)c(-c4ccc(OCCCN5CCCCC5)nc4)cc3c21 [AZD1390] (first compound max 10 µM, 7x7, partner max 0.3 µM)
2. CCc1c2c(nc3ccc(O)cc13)-c1cc3c(c(=O)n1C2)COC(=O)[C@]3(O)CC [SN-38] + O=C(c1cc(Cc2n[nH]c(=O)c3ccccc23)ccc1F)N1CCN(C(=O)C2CC2)CC1 [Olaparib] (first compound max 0.3 µM, 7x7, partner max 10 µM)

RESULT:
1. 0.202
2. 0.896

* * *

Could you please report measured combination Emax for the items listed next?
# Tested on: SK-MEL-24 (Melanoma)
# Assay protocol: combination Emax (second highest fraction inhibited in the dose matrix, 72 h); higher = more inhibition; extreme values may be limits of the assay
Give bare numbers.

{"Compound": "CS(=O)(=O)CCNCc1ccc(-c2ccc3ncnc(Nc4ccc(OCc5cccc(F)c5)c(Cl)c4)c3c2)o1 [Lapatinib] + C[C@@H](Oc1cc(-c2cnn(C3CCNCC3)c2)cnc1N)c1c(Cl)ccc(F)c1Cl [Crizotinib] (first compound max 10 µM, 7x7, partner max 10 µM)", "Observed value": 0.967}

response.value for Cn1cnc2c(F)c(Nc3ccc(Br)cc3Cl)c(C(=O)NOCCO)cc21 [Selumetinib] + CCN(CCO)CCCOc1ccc2c(Nc3cc(CC(=O)Nc4cccc(F)c4)[nH]n3)ncnc2c1 [AZD2811] (first compound max 10 µM, 7x7, partner max 1 µM) (field: combination Emax) = 0.558

* * *

What Bliss excess was measured for each of the following?
# Test system: NCI-H1975 (Lung Adenocarcinoma)
# Assay protocol: Bliss excess, mean over the matrix (fraction); higher = more synergy
Give bare numbers.

{"Compound": "COc1nnc2ccc(N3CCC(c4ccc(OCCN5CCN(C)C(=O)[C@H]5C)cc4)CC3)nn12 [AZD5153] + CCN(CCO)CCCOc1ccc2c(Nc3cc(CC(=O)Nc4cccc(F)c4)[nH]n3)ncnc2c1 [AZD2811] (first compound max 1 µM, 7x7, partner max 1 µM)", "Observed value": -0.005}
{"Compound": "CC1(C)CCC(CN2CCN(c3ccc(C(=O)NS(=O)(=O)c4ccc(NCC5CCOCC5)c([N+](=O)[O-])c4)c(Oc4cnc5[nH]ccc5c4)c3)CC2)=C(c2ccc(Cl)cc2)C1 [Venetoclax] + CCN(CCO)CCCOc1ccc2c(Nc3cc(CC(=O)Nc4cccc(F)c4)[nH]n3)ncnc2c1 [AZD2811] (first compound max 1 µM, 7x7, partner max 1 µM)", "Observed value": -0.0555}
{"Compound": "CC(=O)Nc1cccc(-n2c(=O)n(C3CC3)c(=O)c3c(Nc4ccc(I)cc4F)n(C)c(=O)c(C)c32)c1 [Trametinib] + Cc1nc(-c2cn3c(n2)-c2ccc(-c4cnn(C(C)(C)C(N)=O)c4)cc2OCC3)n(C(C)C)n1 [Taselisib] (first compound max 1 µM, 7x7, partner max 10 µM)", "Observed value": 0.177}

The value of Bliss excess measured for the compound NC1(C(=O)N[C@@H](CCO)c2ccc(Cl)cc2)CCN(c2ncnc3[nH]ccc23)CC1 [Capivasertib] + CC(=O)c1c(C)c2cnc(Nc3ccc(N4CCNCC4)cn3)nc2n(C2CCCC2)c1=O [Palbociclib] (first compound max 10 µM, 7x7, partner max 10 µM) turned out to be -0.0456

* * *

# Tested on: HT-1197 (Bladder Carcinoma)
# Assay protocol: Bliss excess, mean over the matrix (fraction); higher = more synergy
Assay readout: Bliss excess
Give bare numbers.

Past entries and their recorded results:
{"Molecule": "C[C@@H]1COCCN1c1cc(C2([S@](C)(=N)=O)CC2)nc(-c2ccnc3[nH]ccc23)n1 [AZD6738] + O=C(c1cc(Cc2n[nH]c(=O)c3ccccc23)ccc1F)N1CCN(C(=O)C2CC2)CC1 [Olaparib] (first compound max 10 µM, 7x7, partner max 10 µM)", "Bliss excess": -0.0042}
{"Molecule": "CCN(CCO)CCCOc1ccc2c(Nc3cc(CC(=O)Nc4cccc(F)c4)[nH]n3)ncnc2c1 [AZD2811] + O=C(c1cc(Cc2n[nH]c(=O)c3ccccc23)ccc1F)N1CCN(C(=O)C2CC2)CC1 [Olaparib] (first compound max 1 µM, 7x7, partner max 10 µM)", "Bliss excess": 0.0045}
{"Molecule": "C=CCn1c(=O)c2cnc(Nc3ccc(N4CCN(C)CC4)cc3)nc2n1-c1cccc(C(C)(C)O)n1 [AZD1775] + C[C@@H]1COCCN1C2=NC(=NC(=C2)C3(CC3)[S@](=N)(=O)C)C4=C5C=CNC5=NC=C4 [AZD6738] (first compound max 1 µM, partner max 10 µM)", "Bliss excess": -0.0057}

Summary for this molecule, CCc1c2c(nc3ccc(O)cc13)-c1cc3c(c(=O)n1C2)COC(=O)[C@]3(O)CC [SN-38] + CN(C)CCCOc1ccc(-c2ccc3ncc4c(c3c2)n(C2CCOCC2)c(=O)n4C)cn1 [AZD0156] (first compound max 0.3 µM, 7x7, partner max 1 µM) : Bliss excess is -0.0537

* * *

# Tested on: L-363 (Plasma Cell Myeloma)
# Assay protocol: Bliss excess, mean over the matrix (fraction); higher = more synergy
Assay readout: Bliss excess
Give bare numbers.

Here's what some known entries look like.
{"Compound": "Cc1c2c(nn1C)CSCc1cc(n(C)n1)CSc1cc(c3ccccc3c1)OCCCc1c(C(=O)O)n(C)c3c-2c(Cl)ccc13 [AZD5991] + CCN(CCO)CCCOc1ccc2c(Nc3cc(CC(=O)Nc4cccc(F)c4)[nH]n3)ncnc2c1 [AZD2811] (first compound max 1 µM, 7x7, partner max 1 µM)", "Bliss excess": 0.0523}
{"Compound": "C[C@@H]1COCCN1c1cc(C2([S@](C)(=N)=O)CC2)nc(-c2ccnc3[nH]ccc23)n1 [AZD6738] + C1CC(C1)(C(=O)[O-])C(=O)[O-].N.N.[Pt+2] [Carboplatin] (first compound max 10 µM, 7x7, partner max 10 µM)", "Bliss excess": -0.0089}
{"Compound": "CCc1c2c(nc3ccc(O)cc13)-c1cc3c(c(=O)n1C2)COC(=O)[C@]3(O)CC [SN-38] + O=C(c1cc(Cc2n[nH]c(=O)c3ccccc23)ccc1F)N1CCN(C(=O)C2CC2)CC1 [Olaparib] (first compound max 0.3 µM, 7x7, partner max 10 µM)", "Bliss excess": 0.0309}

Please turn your attention to the following entry.
In plain terms, Cc1cc2ncnn2cc1Nc1ncc2c(n1)n(C1CCOCC1)c(=O)n2C [AZD7648] + CCN(CCO)CCCOc1ccc2c(Nc3cc(CC(=O)Nc4cccc(F)c4)[nH]n3)ncnc2c1 [AZD2811] (first compound max 10 µM, 7x7, partner max 1 µM) has a documented Bliss excess of 0.0321

* * *

# Test system: NCI-H2023 (Non-Small Cell Lung Carcinoma)
# Assay protocol: combination Emax (second highest fraction inhibited in the dose matrix, 72 h); higher = more inhibition; extreme values may be limits of the assay
Assay readout: combination Emax

// known answers, use as guide
{"Molecule": "CN(CCO)CC[C@H](CSc1ccccc1)Nc1ccc(S(=O)(=O)NC(=O)c2ccc(N3CCC([C@@H](O)c4ccccc4-c4ccc(Cl)cc4)CC3)cc2)cc1S(=O)(=O)C(F)(F)F [AZD4320] + C[C@@H]1COCCN1C2=NC(=NC(=C2)C3(CC3)[S@](=N)(=O)C)C4=C5C=CNC5=NC=C4 [AZD6738] (first compound max 1 µM, 7x7, partner max 10 µM)", "combination Emax": 0.868}
{"Molecule": "C[C@@H]1COCCN1c1cc(C2([S@](C)(=N)=O)CC2)nc(-c2ccnc3[nH]ccc23)n1 [AZD6738] + O=C(c1cc(Cc2n[nH]c(=O)c3ccccc23)ccc1F)N1CCN(C(=O)C2CC2)CC1 [Olaparib] (first compound max 10 µM, 7x7, partner max 10 µM)", "combination Emax": 0.846}

Continue with the molecule presented below.
Looking up COc1cc2c(cc1OCCCCCOc1cc3c(cc1OC)C(=O)N1C=C(C)C[C@H]1C=N3)N=C[C@@H]1CC(C)=CN1C2=O [SG3199] + O=C(c1cc(Cc2n[nH]c(=O)c3ccccc23)ccc1F)N1CCN(C(=O)C2CC2)CC1 [Olaparib] (first compound max 0.001 µM, 7x7, partner max 10 µM) , I found its combination Emax recorded as 0.173
